Record form. Attribute: pEC50. Fill in for each entry.
test_target: human NAMPT (Homo sapiens (Human), UniProt P43490)
Sequence (P43490 whole entry): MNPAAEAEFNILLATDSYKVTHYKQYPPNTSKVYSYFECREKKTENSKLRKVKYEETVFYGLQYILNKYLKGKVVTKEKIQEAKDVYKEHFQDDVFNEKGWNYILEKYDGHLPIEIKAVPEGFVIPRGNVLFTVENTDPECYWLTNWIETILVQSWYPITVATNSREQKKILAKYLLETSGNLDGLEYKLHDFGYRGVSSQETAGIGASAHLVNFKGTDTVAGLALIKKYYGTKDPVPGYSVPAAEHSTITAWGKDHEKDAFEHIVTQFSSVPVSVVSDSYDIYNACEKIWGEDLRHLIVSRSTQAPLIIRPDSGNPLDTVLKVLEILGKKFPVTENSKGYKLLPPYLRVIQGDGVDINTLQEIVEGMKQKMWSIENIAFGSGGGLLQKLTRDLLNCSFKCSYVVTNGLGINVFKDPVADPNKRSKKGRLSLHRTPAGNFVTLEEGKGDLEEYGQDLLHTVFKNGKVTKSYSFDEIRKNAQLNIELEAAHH
assay_comment: Human recombinant enzyme assay (NMN fluorescence biochemical assay)
test_settings: concentration that gives half-maximal activation; 6 nM human NAMPT, 60 min
Scale note: pEC50 = -log10(concentration in M).

Which pEC50 value is on record for Cc1nc(C(=O)N2CC3(C2)C(=O)Nc2ccccc23)nc(NCCc2cn[nH]c2)c1C ?
4.50

Which pEC50 value is on record for Cc1nc(C(=O)N2CC(O)(C3CC3)C2)nc(NCCc2cn[nH]c2)c1C ?
4.65

// lookup pEC50 for Cc1nc(C(=O)NC(C)(C)c2ccccn2)nc(NCCc2cn[nH]c2)c1C
5.38

I'd like to know its pEC50. The molecule in question is Cc1nc(C(=O)NCc2ccncc2)nc(NCCc2cn[nH]c2)c1C
4.54

---

test_target: human NAMPT (Homo sapiens (Human), UniProt P43490)
assay_comment: Human recombinant enzyme assay (NMN fluorescence biochemical assay)
test_settings: concentration of compound that generates 40% higher activity over basal; 6 nM human NAMPT, 60 min
Everything with AC1.4 Human lower than 1 µM is Condition not met; everything else, including exactly 1 µM, is Condition met.

I'd appreciate it if you could say whether Cc1nc(C(=O)N2CC(C(F)(F)F)C2)nc(NCCc2cn[nH]c2)c1C has AC1.4 Human at least equal to 1 µM.
Condition met

Is reported AC1.4 Human greater than or equal to 1 µM here: Cc1nc(C(=O)NC(c2ccccc2)C(F)(F)F)nc(NCCc2cn[nH]c2)c1C (stereo not shown)
Condition not met

Can Cc1nc(C(=O)N2CCC[C@@H]2c2ccccc2)nc(NCCc2cn[nH]c2)c1C be said to have AC1.4 Human at or above 1 µM?
Condition not met

Confirm if AC1.4 Human reported for the compound Cc1nc(C(=O)N[C@@H](C)c2ccncc2)nc(NCCc2cn[nH]c2)c1C is 1 µM or above.
Condition met

In plain terms: is recorded AC1.4 Human at least 1 µM for Cc1nc(C(=O)N[C@H](C)c2ccccn2)nc(NCCc2cn[nH]c2)c1C ?
Condition not met

Check the entry Cc1nc(C(=O)N2CC3(CCC3)C2)nc(NCCc2cn[nH]c2)c1C : does AC1.4 Human equal or exceed 1 µM?
Condition met

Entry COCC(c1ccc(F)cc1)N(C)C(=O)c1nc(C)c(C)c(NCCc2cn[nH]c2)n1 (stereo not shown) : is its AC1.4 Human no less than 1 µM?
Condition met

Could you tell me if the measured AC1.4 Human of Cc1nc(C(=O)N[C@H](C)c2cccc(F)n2)nc(NCCc2cn[nH]c2)c1Cl reaches 1 µM or more?
Condition not met

API: above_or_equal(metric=AC1.4 Human, cutoff=1 µM) for item Cc1nc(C(=O)N2CC(C)(c3ccccc3)C2)nc(NCCc2cn[nH]c2)c1C
Condition met

Given the entry Cc1nc(C(=O)NCCS(=O)(=O)Cc2ccccc2)nc(NCCc2cn[nH]c2)c1C , answer whether its AC1.4 Human meets or surpasses 1 µM.
Condition met

Please indicate if the recorded AC1.4 Human for Cc1nc(C(=O)N2CCC(C#N)(c3ccccc3)CC2)nc(NCCc2cn[nH]c2)c1C meets or exceeds 1 µM.
Condition met

Does the reported AC1.4 Human for Cc1nc(C(=O)NC2(c3ccccc3)COC2)nc(NCCc2cn[nH]c2)c1C fall at or above the 1 µM mark?
Condition met

Does the compound Cc1nc(C(=O)NCCC(C)(C)C(F)(F)F)nc(NCCc2cn[nH]c2)c1C have recorded AC1.4 Human that is 1 µM or more?
Condition met

Confirm if AC1.4 Human reported for the compound Cc1nc(C(=O)N2CC(O)(C(F)(F)F)C2)nc(NCCc2cn[nH]c2)c1C is 1 µM or above.
Condition not met

Is reported AC1.4 Human greater than or equal to 1 µM here: Cc1nc(C(=O)N2CC(c3cccc(F)c3)C2)nc(NCCc2cn[nH]c2)c1C
Condition not met

Could you verify whether the entry Cc1ccc(C(C)NC(=O)c2nc(C)c(C)c(NCCc3cn[nH]c3)n2)s1 (stereo not shown) shows AC1.4 Human of no less than 1 µM?
Condition met

Is it the case that Cc1cccc([C@@H](C)NC(=O)c2nc(C)c(C)c(NCCc3cn[nH]c3)n2)n1 has AC1.4 Human reaching or exceeding 1 µM?
Condition not met

AC1.4 Human >= 1 µM for Cc1nc(C(=O)NCc2cccc(F)c2)nc(NCCc2cn[nH]c2)c1C ?
Condition not met

Please check the record Cc1nc(C(=O)NC(C)c2cccc(Cl)n2)nc(NCCc2cn[nH]c2)c1C (stereo not shown) and state if its AC1.4 Human is at or above 1 µM.
Condition not met

Dear colleague, could you confirm whether COc1cccc(CNC(=O)c2nc(C)c(C)c(NCCc3cn[nH]c3)n2)n1 has AC1.4 Human at or above 1 µM?
Condition met

Decide: is the reported value of AC1.4 Human for Cc1nc(C(=O)NCc2ccccc2)nc(NCCc2cn[nH]c2)c1C equal to or greater than 1 µM?
Condition not met

Exam item: decide whether the reported AC1.4 Human for Cc1nc(C(=O)N2C[C@H](c3ccccc3)[C@@H](O)C2)nc(NCCc2cn[nH]c2)c1C is at least 1 µM.
Condition not met

Form field: AC1.4 Human at least 1 µM? Entry: Cc1nc(C(=O)N2CCC[C@@H]2c2cccc(F)c2)nc(NCCc2cn[nH]c2)c1C
Condition not met

Hello, I need to know if Cc1nc(C(=O)N2CCOCC2(C)c2ccccc2)nc(NCCc2cn[nH]c2)c1C (stereo not shown) has measured AC1.4 Human not below 1 µM. Thanks!
Condition not met

Could you verify whether the entry Cc1nc(C(=O)N2CC(O)(c3ccccc3F)C2)nc(NCCc2cn[nH]c2)c1C shows AC1.4 Human of no less than 1 µM?
Condition not met

Could you verify whether the entry Cc1nc(C(=O)N2CC(F)(F)C2)nc(NCCc2cn[nH]c2)c1C shows AC1.4 Human of no less than 1 µM?
Condition not met

Is the recorded value of AC1.4 Human equal to or greater than 1 µM for this compound? Cc1nc(C(=O)NCC(C)(O)c2ccccc2)nc(NCCc2cn[nH]c2)c1C (stereo not shown)
Condition met

Check this compound for AC1.4 Human at or above 1 µM: Cc1nc(C(=O)N2CC(C)(O)C2)nc(NCCc2cn[nH]c2)c1C
Condition met

Item COC[C@@H](NC(=O)c1nc(C)c(C)c(NCCc2cn[nH]c2)n1)c1cccc(F)c1 with AC1.4 Human of 1 µM or above?
Condition not met

Could you tell me if the measured AC1.4 Human of Cc1nc(C(=O)N[C@@H](C)c2cccc(F)c2)nc(NCCc2cn[nH]c2)c1C reaches 1 µM or more?
Condition not met

Hi, just wondering whether Cc1nc(C(=O)N2CC(O)(c3cccc(F)c3)C2)nc(NCCc2cn[nH]c2)c1C shows AC1.4 Human of 1 µM or higher.
Condition not met

Is AC1.4 Human at least 1 µM? Consider Cc1nc(C(=O)N2CC(OC(F)(F)F)C2)nc(NCCc2cn[nH]c2)c1C
Condition not met

Please indicate if the recorded AC1.4 Human for Cc1nc(C(=O)N2CCC[C@@H]2c2ccccc2F)nc(NCCc2cn[nH]c2)c1C meets or exceeds 1 µM.
Condition not met

Dear colleague, could you confirm whether Cc1nc(C(=O)NC(C)(C)c2ccccn2)nc(NCCc2cn[nH]c2)c1C has AC1.4 Human at or above 1 µM?
Condition not met

---

test_target: human NAMPT (Homo sapiens (Human), UniProt P43490)
assay_comment: Human recombinant enzyme assay (NMN fluorescence biochemical assay)
test_settings: concentration of compound that generates 40% higher activity over basal; 6 nM human NAMPT, 60 min
Recorded AC1.4 Human determines the label; the label ranges are lower segment (below 0.4 µM), middle segment (0.4 µM to below 1 µM), upper segment (1 µM or more)

Field: class (AC1.4 Human) — entry: Cc1nc(C(=O)NCc2cccs2)nc(NCCc2cn[nH]c2)c1C
lower segment

Kindly state the category for this molecule: Cc1nc(C(=O)N2CC(c3ccccc3)C2)nc(NCCc2cn[nH]c2)c1C
middle segment

Form: Item = Cc1nc(C(=O)N2C[C@@H](C)OC[C@H]2c2ccccc2)nc(NCCc2cn[nH]c2)c1C ; Class = ?
middle segment

Where would Cc1nc(C(=O)N[C@H](C)c2cc3ccccc3o2)nc(NCCc2cn[nH]c2)c1C land among the classes by reported AC1.4 Human?
upper segment

Pick a category. Item: Cc1nc(C(=O)NCC(C)(C)c2cccc(F)c2)nc(NCCc2cn[nH]c2)c1C
lower segment

Into which category would you place Cc1nc(C(=O)N2CCC[C@@H]2c2cccc(Cl)c2)nc(NCCc2cn[nH]c2)c1C ?
lower segment

The entry to classify is Cc1nc(C(=O)NCC2(c3ccccc3)COC2)nc(NCCc2cn[nH]c2)c1C ; which class holds it?
upper segment

Sort Cc1nc(C(=O)N[C@H]2C[C@@H](c3ccccc3)C2)nc(NCCc2cn[nH]c2)c1C into one of the categories.
upper segment

Please classify: C[C@@H](NC(=O)c1nc2c(c(NCCc3cn[nH]c3)n1)CCC2)c1cccc(F)n1
upper segment

Could you place Cc1nc(C(=O)Nc2cc(F)cc(F)c2)nc(NCCc2cn[nH]c2)c1C in its proper category? Many thanks.
upper segment

Field: class (AC1.4 Human) — entry: Cc1nc(C(=O)N2CCOC[C@@H]2c2ccccc2)nc(NCCc2cn[nH]c2)c1C
middle segment

Please classify: Cc1nc(C(=O)N[C@@H](C)c2cccc(F)n2)nc(NCCc2cn[nH]c2)c1C
middle segment

Which of the defined bands does the recorded AC1.4 Human of Cc1nc(C(=O)N[C@H](C)c2cccc(F)n2)nc(NCCc2cn[nH]c2)c1C sit within?
lower segment

Into which bin does this molecule go? Cc1nc(C(=O)N[C@H](C)c2ncccc2F)nc(NCCc2cn[nH]c2)c1C
middle segment

Hi, small favor: classify Cc1nc(C(=O)NC2CC(F)(F)c3ccccc32)nc(NCCc2cn[nH]c2)c1C (centres unmarked) by its AC1.4 Human when you get a moment.
middle segment

Hi, small favor: classify Cc1nc(C(=O)NC2(Cc3ccc(F)cc3Cl)CCOCC2)nc(NCCc2cn[nH]c2)c1C by its AC1.4 Human when you get a moment.
upper segment

Band assignment needed for Cc1nc(C(=O)N[C@H](C)c2ccccc2)nc(NCCc2cn[nH]c2)c1C please.
lower segment
